# credit: patent US12617747B2

- assayTarget: human CB2 receptor (Homo sapiens, UniProt P34972)
- Construct: HA
- Sequence (P34972 whole entry): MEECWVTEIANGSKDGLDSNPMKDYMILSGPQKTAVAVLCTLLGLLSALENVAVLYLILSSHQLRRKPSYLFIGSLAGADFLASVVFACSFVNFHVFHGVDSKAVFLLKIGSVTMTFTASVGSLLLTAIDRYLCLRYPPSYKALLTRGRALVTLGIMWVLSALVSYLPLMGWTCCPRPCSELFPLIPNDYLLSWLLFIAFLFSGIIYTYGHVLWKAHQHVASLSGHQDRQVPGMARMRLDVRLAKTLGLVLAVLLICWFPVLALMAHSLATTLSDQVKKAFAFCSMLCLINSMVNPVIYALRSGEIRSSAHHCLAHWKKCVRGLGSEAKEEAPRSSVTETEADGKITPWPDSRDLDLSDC
- protocolDescription: CB2 receptor agonist activity in AtT20 cells stably expressing HA-tagged human CB2 receptors
- conditions: method of Udoh et al. 2019
readoutType: pEC50
Give bare numbers, as −log10 of the molar value.

Record CC(C)=CCCC1(C)C=Cc2c(O)cc(CCCCCF)cc2O1 (stereo not shown) [5F-CBC] . Reported pEC50: 5.68
